- TGT: Sodium- and chloride-dependent taurine transporter (Homo sapiens)
- Sequence (P31641 whole entry): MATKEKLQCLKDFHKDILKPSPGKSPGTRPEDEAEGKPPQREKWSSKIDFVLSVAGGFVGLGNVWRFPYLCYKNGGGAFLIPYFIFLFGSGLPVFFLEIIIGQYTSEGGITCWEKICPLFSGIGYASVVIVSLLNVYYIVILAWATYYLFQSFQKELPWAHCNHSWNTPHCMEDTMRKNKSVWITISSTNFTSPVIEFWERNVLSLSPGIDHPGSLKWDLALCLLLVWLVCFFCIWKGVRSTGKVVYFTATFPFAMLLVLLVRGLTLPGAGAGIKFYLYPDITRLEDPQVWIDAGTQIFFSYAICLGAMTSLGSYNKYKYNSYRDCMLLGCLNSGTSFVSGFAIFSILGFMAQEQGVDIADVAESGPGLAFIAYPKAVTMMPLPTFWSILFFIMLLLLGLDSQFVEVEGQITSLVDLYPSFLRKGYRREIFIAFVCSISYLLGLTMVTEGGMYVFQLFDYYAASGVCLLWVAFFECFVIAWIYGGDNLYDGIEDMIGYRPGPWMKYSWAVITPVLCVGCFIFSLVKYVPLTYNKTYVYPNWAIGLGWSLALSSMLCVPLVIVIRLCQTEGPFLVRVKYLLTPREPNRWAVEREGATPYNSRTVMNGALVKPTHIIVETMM
- PROTOCOL: Substrate uptake by the Taurine Transporter (TauT, SLC6A6) as assessed by the fluorescent FLIPR membrane potential dye in HEK-293 JumpIN-SLC6A6 cells (PubChem AID: 1794824)
- Format: functional, cell-based, HEK293
OBSERVED PROPERTY: EC50 (µM)

NCCS(=O)(=O)O [TAURINE] :: 10
NCCCC(=O)O [GAMMA-AMINOBUTYRIC ACID] :: 354

// provenance: ChEMBL document CHEMBL5209582
